measured.on: Sphingomyelin phosphodiesterase (Homo sapiens, UniProt P17405)
Sequence (P17405 whole entry): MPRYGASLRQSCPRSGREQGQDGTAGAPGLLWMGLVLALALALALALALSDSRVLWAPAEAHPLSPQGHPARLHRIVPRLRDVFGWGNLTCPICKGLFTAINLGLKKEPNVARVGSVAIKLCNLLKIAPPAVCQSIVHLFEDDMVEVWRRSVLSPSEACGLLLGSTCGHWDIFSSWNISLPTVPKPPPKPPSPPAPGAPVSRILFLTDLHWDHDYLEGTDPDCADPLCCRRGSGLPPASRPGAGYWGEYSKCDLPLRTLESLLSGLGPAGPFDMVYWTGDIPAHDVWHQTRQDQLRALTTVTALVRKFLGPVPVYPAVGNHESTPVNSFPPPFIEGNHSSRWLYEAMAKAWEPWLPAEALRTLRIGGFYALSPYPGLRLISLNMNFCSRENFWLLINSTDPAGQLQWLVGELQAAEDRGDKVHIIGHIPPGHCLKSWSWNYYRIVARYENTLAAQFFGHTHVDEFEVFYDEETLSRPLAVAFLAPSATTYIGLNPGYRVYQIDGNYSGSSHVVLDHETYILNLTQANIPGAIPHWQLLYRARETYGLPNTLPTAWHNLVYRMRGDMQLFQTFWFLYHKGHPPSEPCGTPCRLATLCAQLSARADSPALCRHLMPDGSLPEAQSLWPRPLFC
run.description: Inhibition of acid sphingomyelinase in human HuH7 cell lysate using NBD-sphingomyelin as substrate after 30 mins by TLC based fluorescence assay
endpoint: pIC50
// scale note: pIC50 = -log10(conc_M); give the bare number

Worked cases, pIC50 given:
{"compound": "O=C(NO)c1cccc(OCc2ccccc2)c1", "pIC50": 4.22}
{"compound": "CCCCCCCCCCOc1cc(C(=O)NO)ccc1O", "pIC50": 4.76}
{"compound": "CCCCCCCC1Cc2cc(O)c(C(=O)O)c(O)c2C(C)O1 (stereo unspecified)", "pIC50": 4.16}
{"compound": "CCCCCCCCCCOc1cc(C(=O)NCCO)ccc1OC", "pIC50": 4.15}
{"compound": "CCCCc1oc2ccccc2c1C(=O)c1cc(I)c(OCCN(CC)CC)cc1I", "pIC50": 4.40}

Request: Given the compound CCCCCCCCOC(=O)c1c(CSC(=N)N)n(C)c2cc(Br)c(OC(C)=O)cc12 , write its reported pIC50.
Result: 4.50

Request: Read off the recorded pIC50 for O=C(c1cc(-c2ccccc2)n(-c2ccc(Cl)cc2Cl)n1)N1CCOCC1
Result: 4.55

Request: Using the record for CCCCCCCCCCOc1cccc(C(=O)NO)c1 , state its measured pIC50.
Result: 5.85

Request: Please give the documented pIC50 of Cc1c(C(=O)Nc2cccc(C(F)(F)F)c2)oc2ccc(S(=O)(=O)N3CCOCC3)cc12
Result: 4.65

Request: State its pIC50: CC(C)N1C(=N)/C(=C\c2nc(=O)c3ccccc3[nH]2)c2ccccc21
Result: 4.50

###

measured.on: Sphingomyelin phosphodiesterase (Homo sapiens)
Sequence (P17405 whole entry): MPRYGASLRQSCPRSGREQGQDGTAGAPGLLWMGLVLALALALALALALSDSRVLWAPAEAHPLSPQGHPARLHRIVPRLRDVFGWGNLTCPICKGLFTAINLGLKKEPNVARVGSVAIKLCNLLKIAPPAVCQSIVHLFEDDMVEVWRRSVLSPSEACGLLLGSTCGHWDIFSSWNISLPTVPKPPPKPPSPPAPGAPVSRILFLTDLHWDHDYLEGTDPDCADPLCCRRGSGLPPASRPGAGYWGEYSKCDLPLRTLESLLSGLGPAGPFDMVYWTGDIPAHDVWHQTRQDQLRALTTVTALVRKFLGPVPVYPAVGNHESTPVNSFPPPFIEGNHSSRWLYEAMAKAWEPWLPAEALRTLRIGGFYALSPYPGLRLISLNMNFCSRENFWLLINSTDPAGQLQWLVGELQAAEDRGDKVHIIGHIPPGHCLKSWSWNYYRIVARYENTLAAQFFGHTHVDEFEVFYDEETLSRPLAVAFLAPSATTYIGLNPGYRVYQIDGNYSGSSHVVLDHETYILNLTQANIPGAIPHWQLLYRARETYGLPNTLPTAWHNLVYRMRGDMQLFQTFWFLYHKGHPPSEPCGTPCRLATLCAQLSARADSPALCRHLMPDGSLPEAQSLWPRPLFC
run.description: Inhibition of acid sphingomyelinase in human HuH7 cell lysate using NBD-sphingomyelin as substrate after 30 mins by TLC based fluorescence assay
Threshold-based label: IC50 under 20 µM gives class 1, IC50 not under 20 µM gives class 0.

{"molecule": "O=C(NO)c1cccc(OCc2ccc(Br)cc2)c1", "qualitative.label": "class 1"}
{"molecule": "CCCCCCCCOc1cc(C(=O)NO)ccc1OC", "qualitative.label": "class 1"}
{"molecule": "CCCCCCCCS(=O)(=O)OC[C@H]1OC(O)[C@H](OP(=O)(O)O)[C@@H](O)[C@@H]1OP(=O)(O)O (stereo not given in full)", "qualitative.label": "class 1"}
{"molecule": "O=P(O)(O)O[C@H]1[C@H](O)[C@@H](OP(=O)(O)O)[C@H](O)[C@@H](OP(=O)(O)O)[C@H]1O", "qualitative.label": "class 0"}

Could you now consider this next molecule?
Request: Consider CCCCCCCCCCCCOc1cc(C(=O)NO)ccc1OC . Does its IC50 lie strictly below 20 µM?
Result: class 1

###

measured.on: Sphingomyelin phosphodiesterase (Homo sapiens, UniProt P17405)
Sequence (P17405 whole entry): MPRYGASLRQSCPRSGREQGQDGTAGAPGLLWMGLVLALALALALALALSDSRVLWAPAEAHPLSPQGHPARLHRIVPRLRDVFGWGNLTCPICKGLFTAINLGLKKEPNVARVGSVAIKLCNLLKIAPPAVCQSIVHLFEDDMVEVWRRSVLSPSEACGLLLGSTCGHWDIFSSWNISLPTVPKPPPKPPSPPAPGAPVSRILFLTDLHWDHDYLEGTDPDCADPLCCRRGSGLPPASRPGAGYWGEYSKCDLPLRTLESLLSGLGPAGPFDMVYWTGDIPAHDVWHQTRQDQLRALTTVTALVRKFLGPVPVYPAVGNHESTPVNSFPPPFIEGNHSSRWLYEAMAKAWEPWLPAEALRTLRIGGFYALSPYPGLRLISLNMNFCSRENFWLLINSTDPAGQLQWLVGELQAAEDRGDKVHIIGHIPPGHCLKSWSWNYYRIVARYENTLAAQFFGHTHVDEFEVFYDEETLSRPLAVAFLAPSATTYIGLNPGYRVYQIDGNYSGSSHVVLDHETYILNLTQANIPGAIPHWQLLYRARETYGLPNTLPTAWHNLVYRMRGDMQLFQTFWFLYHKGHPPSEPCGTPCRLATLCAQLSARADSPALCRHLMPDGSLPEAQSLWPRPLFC
run.description: Inhibition of acid sphingomyelinase in human HuH7 cell lysate using NBD-sphingomyelin as substrate after 30 mins by TLC based fluorescence assay
# key: entry, value: IC50
Response body: numeric value in µM, unit text excluded.

{"molecule": "Cc1cc2[nH]c(=O)c(=O)[nH]c2cc1S(=O)(=O)N1CCN(c2cccc(C(F)(F)F)c2)CC1", "measured.on": "Sphingomyelin phosphodiesterase (Homo sapiens, UniProt P17405)", "IC50 / µM": 20}
{"molecule": "COc1c(O)cc2oc3cc(O)c(CC=C(C)C)c(O)c3c(=O)c2c1C/C=C(\\C)CCC=C(C)C [COWANIN]", "measured.on": "Sphingomyelin phosphodiesterase (Homo sapiens, UniProt P17405)", "IC50 / µM": 19.2}
{"molecule": "COc1ccc(COc2cccc(C(=O)NO)c2)cc1", "measured.on": "Sphingomyelin phosphodiesterase (Homo sapiens, UniProt P17405)", "IC50 / µM": 42.7}
{"molecule": "CCCCCCCCCC(OP(=O)(O)O)OP(=O)(O)O", "measured.on": "Sphingomyelin phosphodiesterase (Homo sapiens, UniProt P17405)", "IC50 / µM": 0.3}
{"molecule": "Cc1cc2[nH]c(=O)c(=O)[nH]c2cc1S(=O)(=O)N1CCN(c2cccc(Cl)c2)CC1", "measured.on": "Sphingomyelin phosphodiesterase (Homo sapiens, UniProt P17405)", "IC50 / µM": 20}
{"molecule": "CCCCCCCCOc1cccc(C(=O)NO)c1", "measured.on": "Sphingomyelin phosphodiesterase (Homo sapiens, UniProt P17405)", "IC50 / µM": 17.4}

Request: Name the recorded IC50 of the item CCCCCCCCCCOc1cc(C(=O)NO)ccc1OC in your answer.
Result: 0.48

Request: Supply measured IC50 of COc1ccc(/C=N/NC(=O)c2[nH]c3ccc(Cl)cc3c2-c2ccccc2)c(C(=O)O)c1OC in your reply.
Result: 14.1

Request: Output IC50 of COc1ccc(C(=O)NO)cc1OCc1ccccc1
Result: 10.5

###

measured.on: Sphingomyelin phosphodiesterase (Homo sapiens)
run.description: Inhibition of acid sphingomyelinase in human HuH7 cell lysate using NBD-sphingomyelin as substrate after 30 mins by TLC based fluorescence assay
pIC50: −log10 of the molar value.
Threshold rule: pIC50 greater than or equal to 5 is criterion met; below that, criterion not met.

{"compound": "CCCCCCCCCCCCS(=O)(=O)O[C@H]1OC(O)[C@H](OP(=O)(O)O)[C@@H](O)[C@@H]1OP(=O)(O)O (stereo partly specified)", "qualitative.label": "criterion met"}
{"compound": "COc1cc(/C=C2/SC(=S)N(Nc3ncc(C(F)(F)F)cc3Cl)C2=O)cc(OC)c1OC", "qualitative.label": "criterion not met"}
{"compound": "CCCCCCCCCCOc1cc(C(=O)NCC(C)O)ccc1OC (stereo unspecified)", "qualitative.label": "criterion not met"}
{"compound": "CCOc1ccc2oc(-c3cc(Br)cc4c3OCOC4)c(N)c(=O)c2c1", "qualitative.label": "criterion met"}
{"compound": "N#Cc1ccc(COc2cccc(C(=O)NO)c2)cc1", "qualitative.label": "criterion not met"}
{"compound": "O=c1cc(-c2ccc3c(c2)OCCCO3)oc2c1ccc1ccccc12", "qualitative.label": "criterion not met"}
{"compound": "CC1=C(C(=O)Nc2ccccc2)C(c2ccc(Cl)cc2)n2c(s/c(=C/c3cccc(OCC(=O)O)c3)c2=O)=N1 (stereo unspecified)", "qualitative.label": "criterion not met"}
{"compound": "COc1c(O)cc2oc3cc(O)c(CC=C(C)C)c(O)c3c(=O)c2c1CC=C(C)C", "qualitative.label": "criterion not met"}

Consider the additional compound presented here.
Request: Please tell me: is the compound CCCCCCCC(OP(=O)(O)O)OP(=O)(O)O at or over 5 in terms of pIC50?
Result: criterion met
